Numbers sourced from PubChem BioAssay (NCI).

# Test system: HCT-15 colon
# test: NCI tumour cell line growth inhibition, 48 h
observation type: TGI

ClCc1ccc(-c2ccc(Cn3cnc4c(Cl)ncnc43)cc2)cc1 : 4.47 µM
COc1cc(CC2C(=O)OCC2[C@@H](OC(C)=O)c2ccc3c(c2)OCO3)c(Br)c(OC)c1OC (stereo partly drawn) : > 100 µM
COc1ccc(NC(=O)C2=CC(=O)c3ccc(O)cc3C2=O)c(OC)c1 : > 100 µM
O=C(c1ccccc1)c1c2n(c3c1cc(O)c1ccccc13)CCN2 : 19.1 µM
O=C(Nc1ccc(Cl)cc1)c1cc2ccccc2cc1OP(=O)(O)O : > 100 µM
O=C1C(=O)N(C23CC4CC(CC(C4)C2)C3)C(=S)N1c1ccccc1 : > 100 µM
Cc1cc2c(cc1-c1cc3c(cc1C)C(C(C)C)=C(O)C(=O)/C3=C\Nc1ccccn1)/C(=C/Nc1ccccn1)C(=O)C(O)=C2C(C)C : > 100 µM
CCN(CCN(CC)C(=O)NC)C(=O)NC : > 100 µM
O=C(NCCC1CN(S(=O)(=O)C(F)(F)F)c2ccccc21)OCc1ccccc1 (stereo not drawn) : > 100 µM
Cc1cc(Cl)ccc1Nc1nc2c(s1)C(=O)c1ccccc1C2=O : 3.68 µM
O=C1C(=Cc2ccc([N+](=O)[O-])o2)C(=O)N(CCc2ccccc2)S(=O)(=O)N1CCc1ccccc1 : 30.2 µM
O=c1cc(NNc2cccc(F)c2)[nH]c(=S)[nH]1 : > 100 µM
O=C(NCCCl)NCc1ccccc1 : > 100 µM
